Hello, the source for this data is PubChem BioAssay (NCI), in case you need it.

# System: A498 renal
# protocol_description: NCI-60 one-dose screen, 48 h (100 = growth as untreated, 0 = no growth, -100 = all killed)
# run_parameters: 10 µM unless noted
About 83,000 compounds went through this panel and 20% of them were active in at least one assay; those are over-represented in the sample as a whole. Where a SMILES comes first, the peptide text is derived from it. [ ]: non-standard residue; d: D form. ξ: configuration not given here. ξD = NC(CC(=O)O)C(=O)O
Provide the recorded growth for the entries that follow.
The figure you give is taken to be in %; do not add the unit.

### Prompt Give recorded growth with A498 renal for the following compound: NCC(=O)NC(CC(=O)O)C(=O)O (stereo not drawn) (H-Gly-[ξD]-OH)
### Response 105

### Prompt Give recorded growth with A498 renal for the following compound: O=C(Cc1nc2cc(Cl)c(Cl)cc2nc1CC(=O)c1ccccc1)c1ccccc1
### Response 125

### Prompt Give recorded growth with A498 renal for the following compound: NC(=S)N/N=C\c1nccc2c(N)cccc12
### Response 12.2

### Prompt Give recorded growth with A498 renal for the following compound: Cc1cc2nc(CC(=O)c3ccncc3)c(=O)[nH]c2cc1C
### Response 98.4

### Prompt Give recorded growth with A498 renal for the following compound: O=C(c1ccccc1)c1ccc(O)c2ncccc12
### Response 53.1

### Prompt Give recorded growth with A498 renal for the following compound: OC(c1cc2ccc(C(F)(F)F)cc2c2cc(C(F)(F)F)ccc12)C1CCCCN1 (stereo not drawn)
### Response -65.6

### Prompt Give recorded growth with A498 renal for the following compound: O=C1/C(=C/c2ccccc2)CCC/C1=C\c1ccccc1
### Response 84.6

### Prompt Give recorded growth with A498 renal for the following compound: Cc1c(O)ccc(SC#N)c1C
### Response 127

### Prompt Give recorded growth with A498 renal for the following compound: O=C(O)c1ccc2c(c1)C(=O)c1ccccc1C2=O
### Response 71.8

### Prompt Give recorded growth with A498 renal for the following compound: CN1CSC(=S)N(Cc2ccccc2)C1
### Response 145

### Prompt Give recorded growth with A498 renal for the following compound: COc1ccc2nc3cc(Cl)ccc3c(NCCCCCN3CCCCC3)c2c1
### Response 19.7

### Prompt Give recorded growth with A498 renal for the following compound: C1=C(c2ccccc2)c2ccccc2C1
### Response 68.5

### Prompt Give recorded growth with A498 renal for the following compound: Cc1cc(I)nc2ccccc12
### Response 117

### Prompt Give recorded growth with A498 renal for the following compound: CCCCC(C=O)(C=C=C(C)C)CC (stereo not drawn)
### Response 82

### Prompt Give recorded growth with A498 renal for the following compound: CCCCN(CCCC)CCCCCCCCCCO
### Response 123

### Prompt Give recorded growth with A498 renal for the following compound: OC(CSc1ccccc1)CN1CCN(c2ccc(Cl)cc2)CC1 (stereo not drawn)
### Response 82.1

### Prompt Give recorded growth with A498 renal for the following compound: Oc1ccccc1N=Cc1ccccc1
### Response 97.7

### Prompt Give recorded growth with A498 renal for the following compound: COC(=O)c1ccc(=O)c2nc3/c(=C/O)c(O)cc(=O)c3[nH]c12
### Response 1.77

### Prompt Give recorded growth with A498 renal for the following compound: O=C1C=CC(=O)N1C1CCCCCCCCCCC1
### Response 113

### Prompt Give recorded growth with A498 renal for the following compound: Cc1onc(-c2ccccc2)c1C(=O)N/N=C/c1cc(Cl)cc(Cl)c1O
### Response 81.2

### Prompt Give recorded growth with A498 renal for the following compound: CC1C(c2ccccc2)OCCN1C(=S)Nc1ccc(S(=O)(=O)N2CCCCC2)cc1 (stereo not drawn)
### Response 99.3

### Prompt Give recorded growth with A498 renal for the following compound: Cc1cc(N/N=C/c2ccccn2)nc2ccccc12
### Response 27.7

### Prompt Give recorded growth with A498 renal for the following compound: CC(O)C(O)C(O)C(O)C(O)C(=O)NNc1ccccc1 (stereo not drawn)
### Response 69.7

### Prompt Give recorded growth with A498 renal for the following compound: CC(C)(C)c1ccc(O)c(-c2ccccc2)c1
### Response 121

### Prompt Give recorded growth with A498 renal for the following compound: CCNc1nnnn1CC
### Response 83.8

### Prompt Give recorded growth with A498 renal for the following compound: O=C(NOC(=O)c1ccccc1)c1ccccc1
### Response 94.6

### Prompt Give recorded growth with A498 renal for the following compound: CCN(CC)CC(O)CNc1ccc(NCC2CO2)c2c1C(=O)c1ccccc1C2=O (stereo not drawn)
### Response 81.6

### Prompt Give recorded growth with A498 renal for the following compound: CCCCC(CCc1ccc([N+](=O)[O-])cc1)(C(C)=O)C(=O)OCC (stereo not drawn)
### Response 50.6

### Prompt Give recorded growth with A498 renal for the following compound: O=C1Nc2ccc(Br)cc2C1=O
### Response 107

### Prompt Give recorded growth with A498 renal for the following compound: CCOc1cc(F)c([N+](=O)[O-])cc1[N+](=O)[O-]
### Response 101

### Prompt Give recorded growth with A498 renal for the following compound: CN(C)CC(C)(CN(C)C)C(=O)/C=C/c1c(Cl)cccc1Cl
### Response 119

### Prompt Give recorded growth with A498 renal for the following compound: CCN(CC)CCNC(Cc1ccccc1)c1ccc(OCc2ccccc2)cc1 (stereo not drawn)
### Response 49.8

### Prompt Give recorded growth with A498 renal for the following compound: O=[N+]([O-])c1ccc2c(c1)Cc1ccccc1-2
### Response 82.4
